# Test target: fMet-Leu-Phe receptor (Homo sapiens)
# Sequence (P21462 whole entry): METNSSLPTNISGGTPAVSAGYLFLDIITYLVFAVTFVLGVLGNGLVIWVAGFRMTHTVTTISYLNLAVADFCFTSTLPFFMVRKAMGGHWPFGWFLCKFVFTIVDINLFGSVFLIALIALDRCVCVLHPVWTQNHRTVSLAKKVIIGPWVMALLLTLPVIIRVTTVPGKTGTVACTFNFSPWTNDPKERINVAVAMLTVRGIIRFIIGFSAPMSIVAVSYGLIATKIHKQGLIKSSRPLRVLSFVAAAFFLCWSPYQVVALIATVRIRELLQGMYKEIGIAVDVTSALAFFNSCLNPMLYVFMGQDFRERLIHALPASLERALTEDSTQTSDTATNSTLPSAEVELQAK
# Experiment notes: Inhibitory activity against human formylpeptide receptor (FPR) of human leukemia HL-60 cells
# Assay type: cell-based
// reported IC50 per item
Reported endpoint: IC50

| Smiles | Measured |
| --- | --- |
| C/C=C/C[C@@H](C)[C@@H](O)[C@H]1C(=O)N[C@@H]([C@@H](C)O)C(=O)N(C)CC(=O)N(C)[C@@H](CC(C)C)C(=O)N[C@@H](CC(C)C)C(=O)N(C)[C@@H](CC(C)C)C(=O)N[C@@H](C)C(=O)N[C@H](C)C(=O)N(C)[C@@H](CC(C)C)C(=O)N[C@@H](C)C(=O)N(C)[C@@H](C(C)C)C(=O)N1C | 3.25 µM |
| C/C=C/C[C@@H](C)[C@@H](O)[C@H]1C(=O)N[C@@H](CC)C(=O)NCC(=O)N(C)[C@@H](CC(C)C)C(=O)N[C@@H](C(C)C)C(=O)N(C)[C@@H](CC(C)C)C(=O)N[C@@H](C)C(=O)N[C@H](CO)C(=O)N(C)[C@@H](CC(C)C)C(=O)N(C)[C@@H](CC(C)C)C(=O)N(C)[C@@H](C(C)C)C(=O)N1C | > 5 µM |
| CC/C=C/C[C@@H](C)[C@@H](O)[C@H]1C(=O)N[C@@H](CC)C(=O)N(C)CC(=O)N(C)[C@@H](CC(C)(C)O)C(=O)N[C@@H](C(C)C)C(=O)N(C)[C@@H](CC(C)C)C(=O)N[C@@H](C)C(=O)N[C@H](C)C(=O)N(C)[C@@H](CC(C)C)C(=O)N(C)[C@@H](CC(C)C)C(=O)N(C)[C@@H](C(C)C)C(=O)N1C | > 10 µM |

----------
# Test target: fMet-Leu-Phe receptor (Homo sapiens) (UniProt P21462)
# Sequence (whole entry): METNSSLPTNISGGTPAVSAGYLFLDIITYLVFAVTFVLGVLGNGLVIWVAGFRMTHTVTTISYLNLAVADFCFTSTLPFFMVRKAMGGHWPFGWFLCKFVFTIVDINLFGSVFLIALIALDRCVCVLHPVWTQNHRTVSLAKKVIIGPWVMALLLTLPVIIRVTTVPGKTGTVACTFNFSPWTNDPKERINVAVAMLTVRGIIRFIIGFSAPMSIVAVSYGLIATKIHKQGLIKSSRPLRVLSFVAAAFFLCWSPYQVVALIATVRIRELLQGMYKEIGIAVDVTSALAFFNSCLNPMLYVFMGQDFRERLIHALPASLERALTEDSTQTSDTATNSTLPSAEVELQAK
# Experiment notes: Inhibitory activity against Human formylpeptide receptor (FPR) of human leukemia HL-60 cells
# Format: cell-based
Lab note: anything with IC20 below 0.8 µM is marked TRUE; values at 0.8 µM or higher are marked FALSE.

| Smiles | Group |
| --- | --- |
| C/C=C/C[C@@H](C)[C@@H](O)[C@H]1C(=O)N[C@@H](CC)C(=O)NCC(=O)N(C)[C@H](CC(C)C)C(=O)N[C@H](C(C)C)C(=O)N(C)[C@H](CC(C)C)C(=O)N[C@@H](C)C(=O)N[C@H](CO)C(=O)N(C)[C@@H](CC(C)C)C(=O)N(C)[C@@H](CC(C)C)C(=O)N(C)[C@@H](C(C)C)C(=O)N1C | FALSE |
| CCCCCC[C@H]1C(=O)N[C@@H](CC)C(=O)N(C)CC(=O)N(C)[C@H](CC(C)C)C(=O)N[C@H](C(C)C)C(=O)N(C)[C@H](CC(C)C)C(=O)N[C@@H](C)C(=O)N[C@H](C)C(=O)N(C)[C@@H](CC(C)C)C(=O)N(C)[C@@H](CC(C)C)C(=O)N(C)[C@@H](C(C)C)C(=O)N1C | FALSE |
| CC/C=C/C[C@@H](C)[C@@H](O)[C@H]1C(=O)N[C@@H]([C@@H](C)O)C(=O)N(C)CC(=O)N(C)[C@H](CC(C)C)C(=O)N[C@H](C(C)C)C(=O)N(C)[C@H](CC(C)C)C(=O)N[C@@H](C)C(=O)N[C@H](C)C(=O)N(C)[C@@H](CC(C)C)C(=O)N(C)[C@@H](CC(C)C)C(=O)N(C)[C@@H](C(C)C)C(=O)N1C | FALSE |
| C/C=C/C[C@@H](C)[C@@H](O)[C@H]1C(=O)N[C@@H]([C@@H](C)O)C(=O)NCC(=O)N(C)[C@H](CC(C)C)C(=O)N[C@@H](CC(C)C)C(=O)N(C)[C@H](CC(C)C)C(=O)N[C@@H](C)C(=O)N[C@](O)(C(C)C)C(=O)N(C)[C@@H](CC(C)C)C(=O)N[C@@H](CC(C)C)C(=O)N(C)[C@@H](C(C)C)C(=O)N1C | TRUE |
| C/C=C/C[C@@H](C)[C@@H](O)[C@H]1C(=O)N[C@@H]([C@@H](C)O)C(=O)N(C)CC(=O)N[C@@H](CC(C)C)C(=O)N[C@@H](CC(C)C)C(=O)N(C)[C@H](CC(C)C)C(=O)N[C@@H](C)C(=O)N[C@](O)(C(C)C)C(=O)N(C)[C@@H](CC(C)C)C(=O)N[C@@H](CC(C)C)C(=O)N(C)[C@@H](C(C)C)C(=O)N1C | TRUE |

----------
# Test target: fMet-Leu-Phe receptor (Homo sapiens) (UniProt P21462)
# Experiment notes: Inhibitory activity against Human formylpeptide receptor (FPR) of human leukemia HL-60 cells
# Format: cell-based

| Compound | Limit sign | IC20, nM |
| --- | --- | --- |
| C/C=C/C[C@@H](C)[C@@H](O)C1NC(=O)[C@H](C(C)C)N(C)C(=O)[C@H](CC(C)C)N(C)C(=O)[C@H](CC(C)C)N(C)C(=O)[C@@H](C)NC(=O)[C@H](C)NC(=O)[C@@H](CC(C)C)N(C)C(=O)[C@@H](C(C)C)NC(=O)[C@@H](CC(C)C)N(C)C(=O)CN(C)C(=O)[C@H](CC)NC1=O (some centres undefined) | = | 1900 |
| C/C=C/C[C@@H](C)[C@@H](O)[C@H]1C(=O)N[C@@H](CC)C(=O)N(C)CC(=O)N[C@@H](C(C)C)C(=O)N[C@H](C(C)C)C(=O)N(C)[C@H](CC(C)C)C(=O)N[C@@H](C)C(=O)N[C@H](C)C(=O)N(C)[C@@H](CC(C)C)C(=O)N(C)[C@@H](CC(C)C)C(=O)N(C)[C@@H](C(C)C)C(=O)N1C | > | 10000 |
| C/C=C/C[C@@H](C)[C@@H](O)[C@H]1C(=O)N[C@@H](CC)C(=O)N(C)CC(=O)N[C@@H]([C@@H](C)CC)C(=O)N[C@H](C(C)C)C(=O)N(C)[C@H](CC(C)C)C(=O)N[C@@H](C)C(=O)N[C@H](C)C(=O)N(C)[C@@H](CC(C)C)C(=O)N(C)[C@@H](CC(C)C)C(=O)N(C)[C@@H](C(C)C)C(=O)N1C | = | 2800 |
| C/C=C/C[C@@H](C)[C@@H](O)[C@H]1C(=O)N[C@@H]([C@@H](C)O)C(=O)N(C)CC(=O)N(C)[C@H](CC(C)C)C(=O)N[C@H](C(C)C)C(=O)N(C)[C@H](CC(C)C)C(=O)N[C@@H](C)C(=O)N[C@H](C)C(=O)N(C)[C@@H](CC(C)C)C(=O)N(C)[C@@H](CC(C)C)C(=O)N[C@@H](C(C)C)C(=O)N1C | = | 6400 |

----------
# Test target: UniProt P21462
# Experiment notes: Inhibitory activity against human formylpeptide receptor (FPR) of human leukemia HL-60 cells
# Type: cell-based
pIC50: −log10 of the molar value.
List of pIC50 values.

| Smiles | pIC50 |
| --- | --- |
| CC(C)C[C@H]1C(=O)N[C@@H](C(C)C)C(=O)N(C)[C@@H](CC(C)C)C(=O)N[C@@H](C)C(=O)N[C@H](C)C(=O)N(C)[C@@H](CC(C)C)C(=O)N(C)[C@@H](CC(C)C)C(=O)N(C)[C@@H](C(C)C)C(=O)N(C)[C@@H](CC(C)C)C(=O)N[C@@H](C(C)C)C(=O)N(C)CC(=O)N1C | < 5.00 |
| C/C=C/C[C@@H](C)[C@@H](O)[C@H]1C(=O)N[C@@H]([C@@H](C)O)C(=O)N(C)CC(=O)N(C)[C@@H](CC(C)C)C(=O)N[C@@H](C(C)C)C(=O)N(C)[C@@H](CC(C)C)C(=O)N[C@@H](C)C(=O)N[C@H](C)C(=O)N(C)[C@@H](CC(C)C)C(=O)N(C)[C@@H](CC(C)C)C(=O)N[C@@H](C(C)C)C(=O)N1C | < 5.00 |
| C/C=C/C[C@@H](C)[C@@H](O)[C@H]1C(=O)N[C@@H](CCC)C(=O)N(C)CC(=O)N(C)[C@@H](CC(C)C)C(=O)N[C@@H](C(C)C)C(=O)N(C)[C@@H](CC(C)C)C(=O)N[C@@H](C)C(=O)N[C@H](C)C(=O)N(C)[C@@H](CC(C)C)C(=O)N[C@@H](CC(C)C)C(=O)N(C)[C@@H](C(C)C)C(=O)N1C | < 5.52 |
| C/C=C/C[C@@H](C)C[C@H]1C(=O)N[C@@H](CC)C(=O)N(C)CC(=O)N(C)[C@@H](CC(C)C)C(=O)N[C@@H](C(C)C)C(=O)N(C)[C@@H](CC(C)C)C(=O)N[C@@H](C)C(=O)N[C@H](C)C(=O)N(C)[C@@H](CC(C)C)C(=O)N(C)[C@@H](CC(C)C)C(=O)N(C)[C@@H](C(C)C)C(=O)N1C | < 5.00 |
| C/C=C/C[C@@H](C)[C@@H](O)[C@H]1C(=O)N[C@@H](CCC)C(=O)N(C)CC(=O)N(C)[C@@H](CC(C)C)C(=O)N[C@@H](C(C)C)C(=O)N(C)[C@@H](CC(C)C)C(=O)N[C@@H](C)C(=O)N[C@H](C)C(=O)N[C@@H](CC(C)C)C(=O)N(C)[C@@H](CC(C)C)C(=O)N(C)[C@@H](C(C)C)C(=O)N1C | < 5.00 |
| CC/C=C/C[C@@H](C)[C@@H](O)[C@H]1C(=O)N[C@@H](CC)C(=O)N(C)CC(=O)N(C)[C@@H](C(C)C)C(=O)N[C@@H](C(C)C)C(=O)N(C)[C@@H](CC(C)C)C(=O)N[C@@H](C)C(=O)N[C@H](C)C(=O)N(C)[C@@H](CC(C)C)C(=O)N(C)[C@@H](CC(C)C)C(=O)N(C)[C@@H](C(C)C)C(=O)N1C | < 5.30 |
| CC/C=C/C[C@@H](C)[C@@H](O)[C@H]1C(=O)N[C@@H]([C@@H](C)O)C(=O)N(C)CC(=O)N(C)[C@@H](CC(C)C)C(=O)N[C@@H](C(C)C)C(=O)N(C)[C@@H](CC(C)C)C(=O)N[C@@H](C)C(=O)N[C@H](C)C(=O)N(C)[C@@H](CC(C)C)C(=O)N(C)[C@@H](CC(C)C)C(=O)N(C)[C@@H](C(C)C)C(=O)N1C | < 5.00 |
